# testSummary: in vivo
# Assay type: in vivo
# testSettings: mouse, in vivo, ip, mice
reportedEndpoint: LD50 (mg/kg)

1) CCOC(=O)C1=C(C)NC(C)=C(C(=O)OCC)C1c1cccc([N+](=O)[O-])c1 [B] = 525

====

# testSummary: in vivo
# Type: in vivo
# testSettings: mouse, in vivo, po, mice
reportedEndpoint: LD50 (mg/kg)

1. CCOC(=O)C1=C(C)NC(C)=C(C(=O)OCC)C1c1cccc([N+](=O)[O-])c1 = 5000
